# protocol: Cytotoxicity against human MT4 cells assessed as reduction in cell viability after 5 days by MTT assay
# Format: cell-based
CC50 at 120 h under 20 µM gets yes (1), anything at or over 20 µM gets no (0).

Req: # check: CC50 at 120 h < 20 µM for COCCNc1cc(Oc2c(C)cc(/C=C/C#N)cc2C)nc(Nc2ccc(C#N)cc2)n1
Resp: yes (1)

Req: Dear reviewer, please state whether Cc1cc(/C=C/C#N)cc(C)c1Oc1cc(NC2CC2)nc(Nc2ccc(C#N)cc2)n1 has CC50 at 120 h strictly beneath 20 µM.
Resp: yes (1)

Req: I wonder whether Cc1cc(/C=C/C#N)cc(C)c1Oc1cc(NCCN(C)C)nc(Nc2ccc(C#N)cc2)c1 has CC50 at 120 h below 20 µM. Can you tell?
Resp: yes (1)

Req: Given the entry C=CCNc1cc(Oc2c(C)cc(/C=C/C#N)cc2C)nc(Nc2ccc(C#N)cc2)n1 , would its reported CC50 at 120 h be below 20 µM?
Resp: yes (1)

Req: Criterion: CC50 at 120 h strictly below 20 µM. Is it met by C=CCNc1cc(Oc2c(C)cc(/C=C/C#N)cc2C)cc(Nc2ccc(C#N)cc2)n1 ?
Resp: no (0)

Req: Dear colleague, could you confirm whether CC50 at 120 h of COC(CNc1cc(Oc2c(C)cc(/C=C/C#N)cc2C)nc(Nc2ccc(C#N)cc2)n1)OC falls below 20 µM? Thanks.
Resp: yes (1)

Req: Given the entry COCCNc1cc(Oc2c(C)cc(/C=C/C#N)cc2C)cc(Nc2ccc(C#N)cc2)n1 , would its reported CC50 at 120 h be below 20 µM?
Resp: no (0)

Req: # check: CC50 at 120 h < 20 µM for Cc1cc(/C=C/C#N)cc(C)c1Oc1cc(Nc2ccc(C#N)cc2)nc(NC2CC2)c1
Resp: no (0)

Req: In plain terms, does Cc1cc(/C=C/C#N)cc(C)c1Oc1cc(NCCN2CCNCC2)nc(Nc2ccc(C#N)cc2)n1 come in under 20 µM for CC50 at 120 h?
Resp: yes (1)

Req: # check: CC50 at 120 h < 20 µM for Cc1cc(/C=C/C#N)cc(C)c1Oc1cc(NCCN(C)C)nc(Nc2ccc(C#N)cc2)n1
Resp: yes (1)

Req: API: query returns whether the compound falls strictly under 20 µM in CC50 at 120 h. Query: Cc1cc(/C=C/C#N)cc(C)c1Oc1cc(NCCN2CCOCC2)nc(Nc2ccc(C#N)cc2)n1
Resp: yes (1)

Req: State whether 20 µM exceeds CC50 at 120 h recorded for Cc1cc(/C=C/C#N)cc(C)c1Oc1cc(NCCN2CCOCC2)nc(Nc2ccc(C#N)cc2)c1 .
Resp: no (0)

###

For each entry below, report its CC50 at 120 h value.
# protocol: Cytotoxicity against human MT4 cells assessed as reduction in cell viability after 5 days by MTT assay
# Format: cell-based
Give the value, in units of µM, as a plain number.

Req: Can you look up the measured CC50 at 120 h of Cc1cc(/C=C/C#N)cc(C)c1Oc1cc(NCCC#N)nc(Nc2ccc(C#N)cc2)n1 for me?
Resp: 1

Req: # get_value(readout='CC50 at 120 h', item= Cc1cc(/C=C/C#N)cc(C)c1Oc1cc(NCCN2CCN(C)CC2)nc(Nc2ccc(C#N)cc2)c1 )
Resp: 7.96

Req: Which value of CC50 at 120 h has been reported for Cc1cc(/C=C/C#N)cc(C)c1Oc1cc(Cl)nc(Nc2ccc(C#N)cc2)n1 in the records?
Resp: 4.31

Req: Can you share its CC50 at 120 h? I mean this compound: Cc1cc(/C=C/C#N)cc(C)c1Oc1cc(NCC2CCCO2)nc(Nc2ccc(C#N)cc2)c1 (centres undefined)
Resp: 73.6
